A collection of molecules and their measured Kd
biological target: HIV-1 NefNL4-3 (Human immunodeficiency virus type 1 group M subtype B, UniProt P03406, A33V/T15A/T51N/V11I); test: Surface plasmon resonance binding to recombinant full-length Nef (NL4-3); settings: Reichert SPR Nef NL43 (M) two-step fitting, KD, two-step induced-fit model; Reichert SPR; Table 3
Kindly answer with a numeric value in M, unit omitted.

Below: 5 molecules and their reported Kd.
cpd_smiles	Kd [M]
Oc1c(CC2CCOCC2)c(-c2ccc(F)cc2)nn1-c1nc2ccccc2[nH]1	5.65e-06
Oc1c(CCc2ccc(F)cc2)c(C2CC2)nn1-c1nc2cccnc2[nH]1	4.06e-06
CC(C)OC(=O)N1CCC(c2nn(-c3nc4ccccc4[nH]3)c(O)c2CCC2CCOCC2)CC1	5.49e-06
Oc1c(CCc2ccc(F)cc2)c(C2CC2)nn1-c1nc2cc(Cl)ccc2[nH]1	1.25e-08
Oc1c(CCc2ccncc2)c(-c2ccc(C(F)(F)F)cc2)nn1-c1nc2ccccc2[nH]1	2.91e-10

Any idea what its Kd is? The molecule is `CC(C)COC(=O)N1CCC(c2nn(-c3nc4ccccc4[nH]3)c(O)c2CCc2ccc(F)cc2)CC1`
3.72e-05

// lookup Kd for `CC(C)(C)OC(=O)N1CCC(CCc2c(-c3cccc(S(C)(=O)=O)c3)nn(-c3nc4ccccc4[nH]3)c2O)CC1`
4.56e-06
